targetOrTestSystem: T1, activated human complement C1s (human, UniProt P09871 16-688)
T1 construct: also called aC1s; active C1s
T1 sequence: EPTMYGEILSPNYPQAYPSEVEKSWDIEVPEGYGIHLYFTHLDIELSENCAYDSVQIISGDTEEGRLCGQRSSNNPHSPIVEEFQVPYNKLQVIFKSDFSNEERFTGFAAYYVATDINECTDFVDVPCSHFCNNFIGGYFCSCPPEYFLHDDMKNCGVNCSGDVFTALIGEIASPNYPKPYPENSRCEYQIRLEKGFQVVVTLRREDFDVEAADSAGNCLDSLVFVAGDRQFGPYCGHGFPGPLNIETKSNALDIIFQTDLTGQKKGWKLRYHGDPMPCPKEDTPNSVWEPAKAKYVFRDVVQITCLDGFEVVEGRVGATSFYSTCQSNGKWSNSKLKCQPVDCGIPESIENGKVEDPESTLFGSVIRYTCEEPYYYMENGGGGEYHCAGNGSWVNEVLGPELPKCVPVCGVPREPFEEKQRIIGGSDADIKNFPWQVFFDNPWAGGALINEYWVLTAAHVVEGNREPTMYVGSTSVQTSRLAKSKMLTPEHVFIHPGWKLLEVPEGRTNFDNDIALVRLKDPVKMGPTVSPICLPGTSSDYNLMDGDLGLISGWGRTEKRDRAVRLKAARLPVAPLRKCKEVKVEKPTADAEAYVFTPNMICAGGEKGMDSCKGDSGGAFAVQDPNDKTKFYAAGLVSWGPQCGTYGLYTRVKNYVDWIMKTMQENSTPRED
measurementDescription: competition binding to active C1s; competitor 50 pM biotinylated TNT005 (Biot-005)
pIC50: −log10 of the molar value.

>  <binder>
humanized TNT005 variant VH variant 1+Vk variant 2 (antibody, V domains shown, also called VH variant 1 + VL variant 2) VH: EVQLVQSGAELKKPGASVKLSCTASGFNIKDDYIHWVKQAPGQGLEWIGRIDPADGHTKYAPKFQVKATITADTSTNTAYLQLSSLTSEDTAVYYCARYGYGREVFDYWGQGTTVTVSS VL: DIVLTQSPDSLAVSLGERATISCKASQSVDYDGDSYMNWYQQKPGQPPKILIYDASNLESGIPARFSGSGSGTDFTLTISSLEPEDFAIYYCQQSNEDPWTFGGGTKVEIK

>  <pIC50>
10.25

$$$$
>  <binder>
humanized TNT005 variant VH variant 4+Vk variant 1 (antibody, V domains shown, also called VH variant 4 + VL variant 1) VH: QVQLVQSGAEVKKPGASVKVSCTASGFNIKDDYIHWVRQAPGQGLEWIGRIDPADGHTKYAPKFQVKVTITADTSTSTAYMELSSLRSEDTAVYYCARYGYGREVFDYWGQGTTVTVSS VL: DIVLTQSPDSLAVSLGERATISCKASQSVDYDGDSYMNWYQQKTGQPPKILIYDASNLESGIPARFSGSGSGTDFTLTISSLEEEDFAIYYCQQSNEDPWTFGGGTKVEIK

>  <pIC50>
9.82

$$$$
>  <binder>
humanized TNT005 variant VH variant 3+Vk variant 2 (antibody, V domains shown, also called VH variant 3 + VL variant 2) VH: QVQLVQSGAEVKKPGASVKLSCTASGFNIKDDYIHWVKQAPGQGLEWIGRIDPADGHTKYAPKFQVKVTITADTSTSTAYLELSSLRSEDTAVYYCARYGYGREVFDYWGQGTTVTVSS VL: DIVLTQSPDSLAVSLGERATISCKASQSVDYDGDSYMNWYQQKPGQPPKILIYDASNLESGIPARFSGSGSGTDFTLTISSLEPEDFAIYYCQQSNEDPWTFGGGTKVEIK

>  <pIC50>
9.74

$$$$
>  <binder>
humanized TNT005 variant VH variant 2+Vk variant 1 (antibody, V domains shown, also called VH variant 2 + VL variant 1) VH: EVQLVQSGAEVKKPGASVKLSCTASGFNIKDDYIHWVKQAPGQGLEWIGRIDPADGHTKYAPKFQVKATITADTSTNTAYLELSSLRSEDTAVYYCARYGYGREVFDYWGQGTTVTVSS VL: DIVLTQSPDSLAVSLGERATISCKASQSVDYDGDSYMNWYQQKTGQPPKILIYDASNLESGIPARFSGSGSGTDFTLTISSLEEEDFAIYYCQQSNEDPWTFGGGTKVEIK

>  <pIC50>
9.84

$$$$
>  <binder>
humanized TNT005 variant VH variant 3+Vk variant 1 (antibody, V domains shown, also called VH variant 3 + VL variant 1) VH: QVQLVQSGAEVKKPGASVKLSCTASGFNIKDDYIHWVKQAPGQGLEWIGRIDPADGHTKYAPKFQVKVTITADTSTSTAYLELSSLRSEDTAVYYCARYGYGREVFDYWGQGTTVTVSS VL: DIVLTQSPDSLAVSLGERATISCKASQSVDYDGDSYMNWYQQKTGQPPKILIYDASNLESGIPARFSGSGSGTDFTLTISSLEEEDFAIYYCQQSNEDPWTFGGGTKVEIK

>  <pIC50>
9.75

$$$$
>  <binder>
humanized TNT005 variant VH variant 5+Vk variant 2 (antibody, V domains shown, also called VH variant 5 + VL variant 2) VH: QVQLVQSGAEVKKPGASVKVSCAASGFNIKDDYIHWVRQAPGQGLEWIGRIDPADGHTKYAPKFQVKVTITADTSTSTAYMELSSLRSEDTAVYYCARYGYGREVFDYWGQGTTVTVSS VL: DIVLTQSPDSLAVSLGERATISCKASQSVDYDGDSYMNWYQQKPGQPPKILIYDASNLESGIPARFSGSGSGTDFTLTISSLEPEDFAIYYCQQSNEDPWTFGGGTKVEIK

>  <pIC50>
9.83

$$$$
>  <binder>
humanized TNT005 variant VH variant 2+Vk variant 2 (antibody, V domains shown, also called VH variant 2 + VL variant 2) VH: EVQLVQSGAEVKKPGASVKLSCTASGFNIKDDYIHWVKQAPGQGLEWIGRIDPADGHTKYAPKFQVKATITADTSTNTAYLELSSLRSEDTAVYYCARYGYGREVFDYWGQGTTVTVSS VL: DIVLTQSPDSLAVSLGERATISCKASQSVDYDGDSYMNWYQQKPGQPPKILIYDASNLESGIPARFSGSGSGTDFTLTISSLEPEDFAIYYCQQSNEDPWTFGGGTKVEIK

>  <pIC50>
9.80

$$$$

All figures here come from patent US20200405852A1.
